Test system: U937 cancer cell line
Assay: Cell inhibition assay (SRB cell viability), U937
Assay type: cell-based
Conditions: Homo sapiens, U-937, U937 cells, 72 h, IC50 range

LINE_NOTATION: CC(C)C[C@H](NCc1ccc(NC(=O)CCCCCCC(=O)NO)cc1)C(=O)OC1CCCC1
IC50: < 330 nM
--
LINE_NOTATION: O=C(NO)c1cc2ccc(CNCc3ccc(CN[C@@H](Cc4ccc(O)cc4)C(=O)OC4CCCC4)cc3)cc2s1
IC50: < 330 nM
--
LINE_NOTATION: O=C(CCCCCCC(=O)N1Cc2[nH]c3ccccc3c2C[C@H]1C(=O)N[C@@H](Cc1ccccc1)C(=O)O)NO
IC50: > 3300 nM
--
LINE_NOTATION: CC(C)C[C@H](NC(=O)[C@@H]1Cc2ccc(NC(=O)CCCCCCC(=O)NO)cc2CN1)C(=O)OC1CCCC1
IC50: 330 to 3300 nM

###

Target: histone deacetylase activity (HeLa nuclear extract)
Construct: Histone deacetylase activity from crude nuclear extract derived from HeLa cells was used for screening
Assay: HDAC fluorescent activity assay (Biomol Fluor de Lys), HeLa nuclear extract
Conditions: Fluor de Lys substrate, IC50 range
pIC50: −log10 of the molar value.
ASSAY_READOUT: pIC50

COMPOUND: O=C(CCCCCCC(=O)Nc1cccc(OCCN[C@@H](Cc2ccccc2)C(=O)O)c1)NO [Compound 74]
TEST_TARGET: histone deacetylase activity (HeLa nuclear extract)
VALUE: 6.00 to 7.00
//
COMPOUND: O=C(CCCCCCNC(=O)c1cc2cc(CCC(=O)N[C@@H](Cc3ccccc3)C(=O)OC3CCCC3)ccc2[nH]1)NO [Compound 100]
TEST_TARGET: histone deacetylase activity (HeLa nuclear extract)
VALUE: > 7.00
//
COMPOUND: O=C(CCCCCCC(=O)Nc1cccc(OCCCC(=O)N[C@H](C(=O)O)c2ccccc2)c1)NO [Compound 93]
TEST_TARGET: histone deacetylase activity (HeLa nuclear extract)
VALUE: > 7.00
//
COMPOUND: O=C(CCCCCCC(=O)Nc1ccccc1CN[C@H](C(=O)OC1CCCC1)c1ccccc1)NO [Compound 40]
TEST_TARGET: histone deacetylase activity (HeLa nuclear extract)
VALUE: < 6.00
//
COMPOUND: O=C(CCCCCCC(=O)N1CCCC1C(=O)N[C@@H](Cc1ccccc1)C(=O)OC1CCCC1)NO (some centres unmarked) [Compound 56]
TEST_TARGET: histone deacetylase activity (HeLa nuclear extract)
VALUE: < 6.00
//
COMPOUND: O=C(CCCCCCC(=O)Nc1cccc(C(=O)N[C@H](C(=O)O)c2ccccc2)c1)NO [Compound 61]
TEST_TARGET: histone deacetylase activity (HeLa nuclear extract)
VALUE: 6.00 to 7.00
//
COMPOUND: C[C@H](NCc1ccc(CNCc2ccc3cc(C(=O)NO)sc3c2)cc1)C(=O)OC1CCCC1 [Compound 118]
TEST_TARGET: histone deacetylase activity (HeLa nuclear extract)
VALUE: > 7.00
//
COMPOUND: CCOC(=O)[C@H](Cc1ccccc1)NC(=O)[C@@H]1Cc2c([nH]c3ccccc23)CN1C(=O)CCCCCCC(=O)NO [Compound 7]
TEST_TARGET: histone deacetylase activity (HeLa nuclear extract)
VALUE: 6.00 to 7.00
